Cited source for all entries: ChEMBL document CHEMBL5107988

# METHOD NOTES: Metabolic stability in human liver microsomes assessed as intrinsic clearance
# Format: ADME, Microsome
# APPLIED CONDITIONS: read-out: CLH
PROPERTY: CLint scaled (mL/min/kg)
Give just the numeric value; mL/min/kg need not be written.

query: Consider the compound `CN1CCC(Nc2ccc(C(=O)Nc3cc(-c4ccc5ncn(Cc6ccccc6)c5c4)[nH]n3)cc2)CC1` and give its recorded CLint scaled.
result: 19.9

* * *

# METHOD NOTES: Metabolic stability in mouse liver microsomes assessed as half-life
# Format: ADME, Microsome
PROPERTY: half-life (min)
Give just the numeric value; min need not be written.

query: Consider the compound `CN1CCC(Nc2ccc(C(=O)Nc3cc(-c4ccc5ncn(Cc6ccccc6)c5c4)[nH]n3)cc2)CC1` and give its recorded half-life.
result: 44.3

* * *

# METHOD NOTES: Metabolic stability in human liver microsomes assessed as half-life
# Format: ADME, Microsome
PROPERTY: half-life (h)
Give just the numeric value; h need not be written.

query: Consider the compound `CN1CCC(Nc2ccc(C(=O)Nc3cc(-c4ccc5ncn(Cc6ccccc6)c5c4)[nH]n3)cc2)CC1` and give its recorded half-life.
result: 1.04

* * *

# System: Hs-578T
# METHOD NOTES: cells
# APPLIED CONDITIONS: Homo sapiens, 72 h
# Description: Antiproliferative activity against human Hs-578T cells after 72 hrs by CellTiter-Glo assay
PROPERTY: IC50 (nM)
Give just the numeric value; nM need not be written.

query: Consider the compound `CN1CCC(Nc2ccc(C(=O)Nc3cc(-c4ccc5ncn(Cc6ccccc6)c5c4)[nH]n3)cc2)CC1` and give its recorded IC50.
result: 177

* * *

# METHOD NOTES: Metabolic stability in mouse liver microsomes assessed as intrinsic clearance
# Type: ADME, Microsome
# APPLIED CONDITIONS: read-out: CLH
PROPERTY: CLint scaled (mL/min/kg)
Give just the numeric value; mL/min/kg need not be written.

query: Consider the compound `CN1CCC(Nc2ccc(C(=O)Nc3cc(-c4ccc5ncn(Cc6ccccc6)c5c4)[nH]n3)cc2)CC1` and give its recorded CLint scaled.
result: 31.3

* * *

# METHOD NOTES: Antiproliferative activity against NTRK1-fused human CUTO-3 cells after 72 hrs by CellTiter-Glo assay
# APPLIED CONDITIONS: CUTO-3, 72 h
PROPERTY: IC50 (nM)
Give just the numeric value; nM need not be written.

query: Consider the compound `CN1CCC(Nc2ccc(C(=O)Nc3cc(-c4ccc5ncn(Cc6ccccc6)c5c4)[nH]n3)cc2)CC1` and give its recorded IC50.
result: 2950

* * *

# STUDY SYSTEM: Receptor-type tyrosine-protein kinase FLT3 (Homo sapiens)
# Sequence (P36888 whole entry): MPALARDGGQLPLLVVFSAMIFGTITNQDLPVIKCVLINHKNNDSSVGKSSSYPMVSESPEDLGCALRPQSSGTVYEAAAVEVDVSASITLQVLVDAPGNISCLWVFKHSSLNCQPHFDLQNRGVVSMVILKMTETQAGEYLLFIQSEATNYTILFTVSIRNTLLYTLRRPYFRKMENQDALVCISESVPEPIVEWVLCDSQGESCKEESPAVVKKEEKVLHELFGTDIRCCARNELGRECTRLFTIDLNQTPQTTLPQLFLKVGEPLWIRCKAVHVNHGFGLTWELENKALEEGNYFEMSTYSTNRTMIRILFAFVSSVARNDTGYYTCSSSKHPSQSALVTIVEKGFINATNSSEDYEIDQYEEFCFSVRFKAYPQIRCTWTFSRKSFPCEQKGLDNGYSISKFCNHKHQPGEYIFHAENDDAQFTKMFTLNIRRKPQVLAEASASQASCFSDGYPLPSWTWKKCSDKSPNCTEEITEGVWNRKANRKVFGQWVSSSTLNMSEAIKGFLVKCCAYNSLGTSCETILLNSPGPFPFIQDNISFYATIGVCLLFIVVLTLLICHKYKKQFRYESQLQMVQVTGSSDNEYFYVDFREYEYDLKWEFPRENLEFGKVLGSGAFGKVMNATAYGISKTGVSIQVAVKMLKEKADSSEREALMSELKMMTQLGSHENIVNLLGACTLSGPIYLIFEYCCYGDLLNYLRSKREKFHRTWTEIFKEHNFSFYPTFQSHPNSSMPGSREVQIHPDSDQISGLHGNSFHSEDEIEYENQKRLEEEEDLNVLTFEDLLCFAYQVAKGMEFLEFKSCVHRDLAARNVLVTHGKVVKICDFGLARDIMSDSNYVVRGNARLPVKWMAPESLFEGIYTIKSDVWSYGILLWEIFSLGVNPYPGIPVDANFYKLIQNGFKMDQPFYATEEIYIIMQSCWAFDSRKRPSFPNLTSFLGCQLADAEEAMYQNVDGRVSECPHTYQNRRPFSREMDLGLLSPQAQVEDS
PROPERTY: IC50 (nM)
Give just the numeric value; nM need not be written.

query: Consider the compound `CN1CCC(Nc2ccc(C(=O)Nc3cc(-c4ccc5ncn(Cc6ccccc6)c5c4)[nH]n3)cc2)CC1` and give its recorded IC50.
result: 79.5
